Reported values of Ki for individual entries
- TEST SYSTEM: HPK1 (Homo sapiens (Human), UniProt Q92918, S171E/T165E)
- Sequence (Q92918 whole entry T165E/S171E): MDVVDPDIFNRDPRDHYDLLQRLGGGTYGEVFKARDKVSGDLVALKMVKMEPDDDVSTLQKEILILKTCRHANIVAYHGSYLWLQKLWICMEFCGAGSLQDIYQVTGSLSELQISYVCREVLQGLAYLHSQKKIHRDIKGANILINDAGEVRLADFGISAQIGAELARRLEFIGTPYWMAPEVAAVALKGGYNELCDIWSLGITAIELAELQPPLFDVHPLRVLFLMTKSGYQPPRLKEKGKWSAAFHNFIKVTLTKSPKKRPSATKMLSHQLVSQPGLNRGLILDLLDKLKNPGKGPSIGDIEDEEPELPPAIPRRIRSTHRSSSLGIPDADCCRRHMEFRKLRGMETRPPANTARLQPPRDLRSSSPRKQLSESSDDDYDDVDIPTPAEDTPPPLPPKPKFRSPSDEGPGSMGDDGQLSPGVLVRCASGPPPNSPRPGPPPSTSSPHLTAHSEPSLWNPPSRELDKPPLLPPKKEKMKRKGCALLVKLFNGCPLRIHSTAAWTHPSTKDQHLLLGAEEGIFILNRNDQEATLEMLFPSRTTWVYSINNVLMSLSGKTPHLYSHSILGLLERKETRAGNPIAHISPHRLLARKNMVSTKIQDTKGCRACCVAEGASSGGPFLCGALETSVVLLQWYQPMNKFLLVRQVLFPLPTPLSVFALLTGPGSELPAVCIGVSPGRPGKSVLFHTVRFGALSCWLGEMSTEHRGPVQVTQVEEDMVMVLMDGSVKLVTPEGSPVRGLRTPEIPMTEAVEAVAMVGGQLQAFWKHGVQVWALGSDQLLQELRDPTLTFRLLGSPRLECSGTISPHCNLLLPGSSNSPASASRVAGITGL
- METHOD: HPK1-FL HTRF Enzymatic Assay (HTRF)
- Type: biochemical
- CONDITION: HPK full length T165E S171E 0.125 nM, ATP 1 mM, Biotin-SLP76 100 nM, read-out: HPK1 Ki (nM), H = HTRF
REPORTED PROPERTY: Ki

{"columns": ["MOLECULE", "MEASUREMENT"],
 "data": [
  ["CC(C)N1CCc2cc(Nc3cc4cc(C(=O)N5CCN(C)CC5)c(F)cc4cn3)nn2CC1=O [Compound 124]", "63 nM"],
  ["Cc1c(-c2cc3cc(Nc4cc5n(n4)CC(=O)N(C)CC5)ncc3cc2F)cnc2c1NCN(C)C2=O [Compound 187]", "0.25 nM"],
  ["CNCc1ccc(F)c(-c2ccc3cnc(Nc4cc5n(n4)CC(=O)N(C)CC5)cc3c2)c1C [Compound 219]", "7 nM"],
  ["Cc1c(-c2cc3cc(Nc4cc5n(n4)CC(=O)NCC5)ncc3cc2F)cnc2c1NCC(C)O2 (racemic) [Compound 184]", "0.018 nM"],
  ["Cc1c(-c2cc3cc(Nc4cc5n(n4)Cc4nccn4CC5)ncc3cc2F)cnc2c1NCC[C@@H]2O (single isomer, unassigned) [Compound 243a]", "0.013 nM"],
  ["Cc1c(-c2cc3cc(Nc4ccn([C@H](C)C#N)n4)ncc3cc2F)cnc2c1NCCO2 (single isomer, unassigned) [Compound 109a]", "2.17 nM"],
  ["Cc1cc(CN)ncc1-c1cc2cc(Nc3cc4n(n3)CC(=O)N(C)CC4)ncc2cc1F [Compound 212]", "50 nM"],
  ["COCCN1CCc2cc(Nc3cc4cc(-c5cnc6c(c5C)NCCO6)c(F)cc4cn3)nn2CC1=O [Compound 155]", "0.013 nM"],
  ["Cc1c(NC2CNC2)cncc1-c1cc2cc(Nc3cc4n(n3)Cc3nccn3CC4)ncc2cc1F [Compound 179]", "0.5 nM"],
  ["Cc1c(-c2cc3cc(Nc4cc5n(n4)CC(=O)N(C)CC5)ncc3c(F)c2F)cnc2c1NCCO2 [Compound 138]", "0.013 nM"],
  ["Cc1c(N)cncc1-c1cc(F)c2cnc(Nc3cc4n(n3)Cc3nccn3CC4)cc2c1 [Compound 168]", "0.028 nM"],
  ["Cc1c(N)cncc1-c1cc2cc(Nc3cc4n(n3)CC(=O)N(C(C)C#N)CC4)ncc2cc1F (single isomer, unassigned) [Compound 154b]", "0.032 nM"],
  ["Cc1c(-c2cc3cc(Nc4cc5n(n4)CC(=O)N(C(C)C)CC5)ncc3c(Cl)c2F)cnc2c1NCCO2 [Compound 115]", "0.2 nM"],
  ["Cc1c(-c2cc3cc(Nc4cc5n(n4)CC(=O)N(C)CC5)ncc3cc2F)cnc2c1[C@@H](F)CCO2 (single isomer, unassigned) [Compound 235a]", "2.1 nM"],
  ["Cc1[nH]ncc1-c1cc2cc(Nc3cc4n(n3)CC(=O)N(C)CC4)ncc2c(O)c1F [Compound 202]", "119 nM"]
]}

###

- TEST SYSTEM: HPK1 (Homo sapiens (Human), UniProt Q92918, S171E/T165E)
- METHOD: HPK1-FL HTRF Enzymatic Assay (HTRF)
- Type: biochemical
- CONDITION: HPK full length T165E S171E 0.125 nM, ATP 1 mM, Biotin-SLP76 100 nM, read-out: HPK1 Ki (nM), H = HTRF
The label is Met for Ki below 0.3 nM and Not met for Ki equal to or exceeding 0.3 nM.

{"columns": ["MOLECULE", "TEST SYSTEM", "CAT"],
 "data": [
  ["Cc1c(-c2cc3cc(Nc4cc5n(n4)CC(=O)N(C)CC5)ncc3cc2F)cnc2c1NCCC2(F)F", "HPK1 (Homo sapiens (Human), UniProt Q92918, S171E/T165E)", "Met"],
  ["Cc1c(CN)cccc1-c1cc2cc(Nc3cc4n(n3)CC(=O)N(C)CC4)ncc2cc1F", "HPK1 (Homo sapiens (Human), UniProt Q92918, S171E/T165E)", "Not met"],
  ["CO[C@H]1CCNc2c1ncc(-c1cc(F)c3cnc(Nc4cc5n(n4)CC(=O)N(C)CC5)cc3c1)c2C (single isomer, unassigned) [Compound 234a]", "HPK1 (Homo sapiens (Human), UniProt Q92918, S171E/T165E)", "Not met"],
  ["Cc1c(-c2cc3cc(Nc4cc5n(n4)CC(=O)N(CCO)CC5)ncc3cc2F)cnc2c1NCCO2", "HPK1 (Homo sapiens (Human), UniProt Q92918, S171E/T165E)", "Met"],
  ["Cc1c(-c2cc(F)c3cnc(Nc4cc5n(n4)CC(=O)N(C)CC54CC4)cc3c2)cnc2c1NCC[C@H]2O (single isomer, unassigned) [Compound 237b]", "HPK1 (Homo sapiens (Human), UniProt Q92918, S171E/T165E)", "Not met"],
  ["Cc1c(-c2cc3cc(Nc4cc5n(n4)CC(=O)N(C)CC5)ncc3cc2F)cnc2c1NCC(C)(C)[C@@H]2O (single isomer, unassigned) [Compound 241b]", "HPK1 (Homo sapiens (Human), UniProt Q92918, S171E/T165E)", "Met"],
  ["Cc1c(-c2cc3cc(Nc4cc5n(n4)CC(=O)N(C)CC54CC4)ncc3cc2F)cnc2c1NCC[C@H]2O (single isomer, unassigned) [Compound 205a]", "HPK1 (Homo sapiens (Human), UniProt Q92918, S171E/T165E)", "Met"],
  ["Cc1c(N)cncc1-c1cc2cc(Nc3cc4n(n3)CC(=O)N([C@@H](C)C#N)CC4)ncc2cc1F (single isomer, unassigned) [Compound 154a]", "HPK1 (Homo sapiens (Human), UniProt Q92918, S171E/T165E)", "Met"],
  ["COCCN1CCc2cc(Nc3cc4cc(-c5cncc(N)c5C)c(F)cc4cn3)nn2CC1=O", "HPK1 (Homo sapiens (Human), UniProt Q92918, S171E/T165E)", "Met"],
  ["Cc1c(-c2cc3cc(Nc4cc5n(n4)CC(=O)N(C)CC5)ncc3cc2F)cnc2c1N(C)CCO2", "HPK1 (Homo sapiens (Human), UniProt Q92918, S171E/T165E)", "Not met"],
  ["Cc1c(-c2cc3cc(Nc4cc5n(n4)CC(=O)N(C)CC5)ncc3cc2F)cnc2c1NCC[C@@H]2O (single isomer, unassigned) [Compound 236a]", "HPK1 (Homo sapiens (Human), UniProt Q92918, S171E/T165E)", "Met"],
  ["Cc1c(-c2cc3cc(Nc4cc5n(n4)CC(=O)N(C)CC5)ncc3cc2F)cnc2cn[nH]c12", "HPK1 (Homo sapiens (Human), UniProt Q92918, S171E/T165E)", "Met"],
  ["Cc1c(N)cncc1-c1cc(Cl)c2cnc(Nc3cc4n(n3)CC(=O)N(C(C)C)CC4)cc2c1", "HPK1 (Homo sapiens (Human), UniProt Q92918, S171E/T165E)", "Not met"]
]}
